# maximal % inhibition of viability values compiled below
Test system: UT-SCC-81
Test: maximal % inhibition of viability relative to DMSO; higher = stronger effect
Details: culture condition: on top of Myogel; treatment time: 3 days

Cn1cnc2c(F)c(Nc3ccc(Br)cc3F)c(C(=O)NOCCO)cc21 23.5%
C#Cc1cccc(Nc2ncnc3cc(OCCOC)c(OCCOC)cc23)c1 15.7%
Cn1c(=O)c(F)c(Nc2ccc(I)cc2F)c2c(=O)n(C[C@@H](O)CO)cnc21 24.3%
CO[C@H]1C[C@@H]2CC[C@@H](C)[C@@](O)(O2)C(=O)C(=O)N2CCCC[C@H]2C(=O)O[C@H]([C@H](C)C[C@@H]2CC[C@@H](OP(C)(C)=O)[C@H](OC)C2)CC(=O)[C@H](C)/C=C(\C)[C@@H](O)[C@@H](OC)C(=O)[C@H](C)C[C@H](C)/C=C/C=C/C=C/1C 54.6%

Next up:
I am curious: what maximal % inhibition of viability value has been reported for COc1ncc(-c2ccc3nccc(-c4ccnnc4)c3c2)cc1NS(=O)(=O)c1ccc(F)cc1F ?
90.3%

----------
System: UT-SCC-44
Assay: relative IC50 (midpoint of the fitted curve; maximal inhibition may be below 50%); higher = less potent
Conditions: culture condition: on top of Myogel; treatment time: 3 days
Quantity: relative IC50
For clarity, give the value followed by its unit.

Example cases with answers are listed next.
Compound	relative IC50
C=CC(=O)Nc1cc2c(Nc3ccc(F)c(Cl)c3)ncnc2cc1OCCCN1CCOCC1 [Canertinib]	2050 nM
COc1cc(F)c(F)c(Nc2ccc(I)cc2F)c1NS(=O)(=O)C1(C[C@H](O)CO)CC1 [Refametinib]	569 nM
Cn1cnc2c(F)c(Nc3ccc(Br)cc3F)c(C(=O)NOCCO)cc21 [Binimetinib]	41.3 nM

Next up:
I am curious: what relative IC50 value has been reported for Cn1cnc2c(F)c(Nc3ccc(Br)cc3Cl)c(C(=O)NOCCO)cc21 [Selumetinib] ?
151 nM

----------
# relative IC50 values compiled below
Test system: UT-SCC-24B
Assay: relative IC50 (midpoint of the fitted curve; maximal inhibition may be below 50%); higher = less potent
Conditions: culture condition: embedded in Myogel + collagen I; treatment time: 3 days
// units = nM; emit number, no label

Compound	relative IC50, nM
COc1ccc(-c2cc3c(C)nc(N)nc3n([C@H]3CC[C@H](OCCO)CC3)c2=O)cn1	163
COc1ncc(-c2ccc3nccc(-c4ccnnc4)c3c2)cc1NS(=O)(=O)c1ccc(F)cc1F [Omipalisib]	9.4
O=C(NC[C@H](O)CO)c1ccncc1Nc1ccc(I)cc1F [Pimasertib]	212
Cn1c(=O)n(-c2ccc(C(C)(C)C#N)cc2)c2c3cc(-c4cnc5ccccc5c4)ccc3ncc21 [Dactolisib]	22.1

Next up:
I am curious: what relative IC50 value has been reported for CC(=O)Nc1cccc(-n2c(=O)n(C3CC3)c(=O)c3c(Nc4ccc(I)cc4F)n(C)c(=O)c(C)c32)c1 [Trametinib] ?
9.92

----------
Tested on: UT-SCC-44
Test: drug sensitivity score (DSS); higher = more sensitive; extreme values may be limits of the assay
Conditions: culture condition: embedded in Myogel + collagen I; treatment time: 3 days
# drug sensitivity score values compiled below
// units = DSS; emit number, no label

COc1ccc(-c2cc3c(C)nc(N)nc3n([C@H]3CC[C@H](OCCO)CC3)c2=O)cn1 4.07
CO[C@H]1C[C@@H]2CC[C@@H](C)[C@@](O)(O2)C(=O)C(=O)N2CCCC[C@H]2C(=O)O[C@H]([C@H](C)C[C@@H]2CC[C@@H](OC(=O)C(C)(CO)CO)[C@H](OC)C2)CC(=O)[C@H](C)/C=C(\C)[C@@H](O)[C@@H](OC)C(=O)[C@H](C)C[C@H](C)/C=C/C=C/C=C/1C 9.3
C=CC(=O)Nc1cc2c(Nc3ccc(F)c(Cl)c3)ncnc2cc1OCCCN1CCOCC1 6.57
CO[C@H]1C[C@@H]2CC[C@@H](C)[C@@](O)(O2)C(=O)C(=O)N2CCCC[C@H]2C(=O)O[C@H]([C@H](C)C[C@@H]2CC[C@@H](OP(C)(C)=O)[C@H](OC)C2)CC(=O)[C@H](C)/C=C(\C)[C@@H](O)[C@@H](OC)C(=O)[C@H](C)C[C@H](C)/C=C/C=C/C=C/1C 6.23

Please tell me: drug sensitivity score of COc1ncc(-c2ccc3nccc(-c4ccnnc4)c3c2)cc1NS(=O)(=O)c1ccc(F)cc1F , system UT-SCC-44?
13.9

----------
Tested on: UT-SCC-28
Test: maximal % inhibition of viability relative to DMSO; higher = stronger effect
Conditions: culture condition: plastic 2D (no matrix); treatment time: 3 days
Quantity: maximal % inhibition of viability (%)
// units = %; emit number, no label

Cn1c(=O)n(-c2ccc(C(C)(C)C#N)cc2)c2c3cc(-c4cnc5ccccc5c4)ccc3ncc21 8.33
COc1cc(F)c(F)c(Nc2ccc(I)cc2F)c1NS(=O)(=O)C1(C[C@H](O)CO)CC1 23.7

Next up:
I am curious: what maximal % inhibition of viability value has been reported for CO[C@H]1C[C@@H]2CC[C@@H](C)[C@@](O)(O2)C(=O)C(=O)N2CCCC[C@H]2C(=O)O[C@H]([C@H](C)C[C@@H]2CC[C@@H](O)[C@H](OC)C2)CC(=O)[C@H](C)/C=C(\C)[C@@H](O)[C@@H](OC)C(=O)[C@H](C)C[C@H](C)/C=C/C=C/C=C/1C ?
34.8

----------
Test system: UT-SCC-44
Assay: drug sensitivity score (DSS); higher = more sensitive; extreme values may be limits of the assay
Conditions: culture condition: embedded in Myogel + collagen I; treatment time: 3 days
Where drug sensitivity score equals or exceeds 4 DSS, the correct label is 1 (yes); where it does not, the label is 0 (no).

Compound	Target or test system	Class
Cn1cnc2c(F)c(Nc3ccc(Br)cc3F)c(C(=O)NOCCO)cc21 [Binimetinib]	UT-SCC-44	0 (no)
COc1cc(F)c(F)c(Nc2ccc(I)cc2F)c1NS(=O)(=O)C1(C[C@H](O)CO)CC1 [Refametinib]	UT-SCC-44	1 (yes)
COc1cc2ncnc(Nc3ccc(F)c(Cl)c3)c2cc1OCCCN1CCOCC1 [Gefitinib]	UT-SCC-44	0 (no)

# ---- query compound ----
Kindly determine if drug sensitivity score recorded for Cc1c(CN2CCN(C(=O)[C@H](C)O)CC2)sc2c(N3CCOCC3)nc(-c3cnc(N)nc3)nc12 [Apitolisib] is above or exactly 4 DSS.
1 (yes)

----------
Tested on: UT-SCC-106A
Assay: drug sensitivity score (DSS); higher = more sensitive; extreme values may be limits of the assay
Conditions: culture condition: embedded in Myogel + collagen I; treatment time: 3 days
Quantity: drug sensitivity score (DSS)
// units = DSS; emit number, no label

Example cases with answers are listed next.
CO[C@H]1C[C@@H]2CC[C@@H](C)[C@@](O)(O2)C(=O)C(=O)N2CCCC[C@H]2C(=O)O[C@H]([C@H](C)C[C@@H]2CC[C@@H](OP(C)(C)=O)[C@H](OC)C2)CC(=O)[C@H](C)/C=C(\C)[C@@H](O)[C@@H](OC)C(=O)[C@H](C)C[C@H](C)/C=C/C=C/C=C/1C 2.63
Cn1cnc2c(F)c(Nc3ccc(Br)cc3F)c(C(=O)NOCCO)cc21 0.567
CO[C@H]1C[C@@H]2CC[C@@H](C)[C@@](O)(O2)C(=O)C(=O)N2CCCC[C@H]2C(=O)O[C@H]([C@H](C)C[C@@H]2CC[C@@H](OC(=O)C(C)(CO)CO)[C@H](OC)C2)CC(=O)[C@H](C)/C=C(\C)[C@@H](O)[C@@H](OC)C(=O)[C@H](C)C[C@H](C)/C=C/C=C/C=C/1C 5.33

I am curious: what drug sensitivity score value has been reported for CN(C)C/C=C/C(=O)Nc1cc2c(Nc3ccc(F)c(Cl)c3)ncnc2cc1O[C@H]1CCOC1 ?
0

----------
System: UT-SCC-14
Assay: drug sensitivity score (DSS); higher = more sensitive; extreme values may be limits of the assay
Settings: culture condition: embedded in Myogel + collagen I; treatment time: 3 days
# drug sensitivity score values compiled below
// units = DSS; emit number, no label

Example cases with answers are listed next.
Molecule	Target or test system	Unit label	Reported
Cn1cnc2c(F)c(Nc3ccc(Br)cc3Cl)c(C(=O)NOCCO)cc21 [Selumetinib]	UT-SCC-14	DSS	5.17
CN(C)C/C=C/C(=O)Nc1cc2c(Nc3ccc(F)c(Cl)c3)ncnc2cc1O[C@H]1CCOC1 [Afatinib]	UT-SCC-14	DSS	9.3
COc1ncc(-c2ccc3nccc(-c4ccnnc4)c3c2)cc1NS(=O)(=O)c1ccc(F)cc1F [Omipalisib]	UT-SCC-14	DSS	20.9

Next up:
Please tell me: drug sensitivity score of C=CC(=O)Nc1cc2c(Nc3ccc(F)c(Cl)c3)ncnc2cc1OCCCN1CCOCC1 [Canertinib] , system UT-SCC-14?
11.2
